system: Staphylococcus aureus; test: Antibacterial activity against methicillin-resistant Staphylococcus aureus ATCC 33591 by broth microdilution method; type: functional
Observed property: MIC

Structure string	System	Observed property	Observed result
CC[C@H]1OC(=O)[C@H](C)C(=O)[C@H](C)[C@@H](O[C@@H]2O[C@H](C)C[C@H](N(C)C)[C@H]2O)[C@](C)(OC)C[C@@H](C)C(=O)[C@H](C)[C@H]2N(CCCOc3ccc4cccnc4c3)C(=O)O[C@]12C	Staphylococcus aureus	MIC	256 µg/mL
CC[C@H]1OC(=O)[C@H](C)C(=O)[C@H](C)[C@@H](O[C@@H]2O[C@H](C)C[C@H](N(C)C)[C@H]2O)[C@](C)(OC)C[C@@H](C)C(=O)[C@H](C)[C@H]2N(CC/C=C/c3cncc4cc(OC)ccc34)C(=O)O[C@]12C	Staphylococcus aureus	MIC	64 µg/mL
CC[C@H]1OC(=O)[C@@](C)(F)C(=O)[C@H](C)[C@@H](O[C@@H]2O[C@H](C)C[C@H](N(C)C)[C@H]2O)[C@](C)(OC)C[C@@H](C)C(=O)[C@H](C)[C@H]2N(CC/C=C/c3cnc4ccccc4c3)C(=O)O[C@]12C	Staphylococcus aureus	MIC	32 µg/mL
CC[C@H]1OC(=O)[C@H](C)C(=O)[C@H](C)[C@@H](O[C@@H]2O[C@H](C)C[C@H](N(C)C)[C@H]2O)[C@](C)(OC)C[C@@H](C)C(=O)[C@H](C)[C@H]2N(CC/C=C/c3cncc4ccc(OCc5ccccc5)cc34)C(=O)O[C@]12C	Staphylococcus aureus	MIC	8 µg/mL

====

system: Streptococcus pneumoniae; test: Antibacterial activity against erythromycin-sensitive Streptococcus pneumoniae 11G364 by broth microdilution method; format: functional

Structure string	Unit string	Censoring sign	MIC
CC[C@H]1OC(=O)[C@H](C)C(=O)[C@H](C)[C@@H](O[C@@H]2O[C@H](C)C[C@H](N(C)C)[C@H]2O)[C@](C)(OC)C[C@@H](C)C(=O)[C@H](C)[C@H]2N(CCCOc3cnc4ccccc4c3)C(=O)O[C@]12C	mg/L	≤	0.004
CC[C@H]1OC(=O)[C@H](C)C(=O)[C@H](C)[C@@H](O[C@@H]2O[C@H](C)C[C@H](N(C)C)[C@H]2O)[C@](C)(OC)C[C@@H](C)C(=O)[C@H](C)[C@H]2N(CCCNc3cnc4ccccc4c3)C(=O)O[C@]12C	mg/L	=	0.016
CC[C@H]1OC(=O)[C@H](C)C(=O)[C@H](C)[C@@H](O[C@@H]2O[C@H](C)C[C@H](N(C)C)[C@H]2O)[C@](C)(OC)C[C@@H](C)C(=O)[C@H](C)[C@H]2N(CC/C=C/c3cnc4ccccc4c3)C(=O)O[C@]12C	mg/L	≤	0.004
CC[C@H]1OC(=O)[C@H](C)C(=O)[C@H](C)[C@@H](O[C@@H]2O[C@H](C)C[C@H](N(C)C)[C@H]2O)[C@](C)(OC)C[C@@H](C)C(=O)[C@H](C)[C@H]2N(CCCCc3cnc4ccccc4c3)C(=O)O[C@]12C	mg/L	≤	0.004
CC[C@H]1OC(=O)[C@H](C)C(=O)[C@H](C)[C@@H](O[C@@H]2O[C@H](C)C[C@H](N(C)C)[C@H]2O)[C@](C)(OC)C[C@@H](C)C(=O)[C@H](C)[C@H]2N(CCCSc3cnc4ccccc4c3)C(=O)O[C@]12C	mg/L	=	0.008
CC[C@H]1OC(=O)[C@H](C)C(=O)[C@H](C)[C@@H](O[C@@H]2O[C@H](C)C[C@H](N(C)C)[C@H]2O)[C@](C)(OC)C[C@@H](C)C(=O)[C@H](C)[C@H]2N(CCCCn3cnc(-c4cccnc4)c3)C(=O)O[C@]12C	mg/L	=	0.016
CC[C@H]1OC(=O)[C@H](C)[C@@H](O[C@H]2C[C@@](C)(OC)[C@@H](O)[C@H](C)O2)[C@H](C)[C@@H](O[C@@H]2O[C@H](C)C[C@H](N(C)C)[C@H]2O)[C@](C)(OC)C[C@@H](C)C(=O)[C@H](C)[C@@H](O)[C@]1(C)O	mg/L	=	0.031
